# System: 616215-338-R-J1-PDC complex spheroid viability
# experiment.notes: Anticancer human tumor 616215-338-R-J1-PDC patient-derived colon adenocarcinoma cell line growth inhibition [POLQ]
# condition.info: second compound 3.16 µM; first compound 1 µM; stronger effect = lower value
Decide using viability, T/C alone. Strictly below 60%: 1. Equal to or above 60%: 0.

[
  {
    "molecule": "COc1cc(C2c3cc4c(cc3C(OC3OC5COC(C)OC5C(O)C3O)C3COC(=O)C23)OCO4)cc(OC)c1O (stereo not given) + COC1C(OC(N)=O)C(O)C(Oc2ccc3c(O)c(NC(=O)c4ccc(O)c(CC=C(C)C)c4)c(=O)oc3c2C)OC1(C)C",
    "class.label": 0
  },
  {
    "molecule": "COc1ccc([C@@H](O)c2cc(-c3ncnc4cc(N5CCOCC5)ccc34)c(F)cc2Cl)nn1 + Nc1ccc(C#CCN(C(=O)Cc2ncc(C(F)(F)F)cc2C(F)(F)F)c2ccc(F)cc2)nn1",
    "class.label": 0
  },
  {
    "molecule": "COc1ccc([C@@H](O)c2cc(-c3ncnc4cc(N5CCOCC5)ccc34)c(F)cc2Cl)nn1 + COC1C(OC(N)=O)C(O)C(Oc2ccc3c(O)c(NC(=O)c4ccc(O)c(CC=C(C)C)c4)c(=O)oc3c2C)OC1(C)C",
    "class.label": 0
  },
  {
    "molecule": "CC1COCCN1c1cc(-c2ccnn2C)c2ccnc(-c3ccn[nH]3)c2n1 (stereo not given) + COC1C(OC(N)=O)C(O)C(Oc2ccc3c(O)c(NC(=O)c4ccc(O)c(CC=C(C)C)c4)c(=O)oc3c2C)OC1(C)C",
    "class.label": 1
  },
  {
    "molecule": "C=CCn1c(=O)c2cnc(Nc3ccc(N4CCN(C)CC4)cc3)nc2n1-c1cccc(C(C)(C)O)n1 + Cc1cccc(N(C)C(=O)C2C(O)CCN2c2nc(C)cc(C(F)(F)F)c2C#N)c1",
    "class.label": 1
  },
  {
    "molecule": "C#Cc1c(F)ccc2cc(O)cc(-c3ncc4c(N5CC6CCC(C5)N6)nc(OCC56CCCN5CC(F)C6)nc4c3F)c12 (stereo not given) + COC1C(OC(N)=O)C(O)C(Oc2ccc3c(O)c(NC(=O)c4ccc(O)c(CC=C(C)C)c4)c(=O)oc3c2C)OC1(C)C",
    "class.label": 0
  },
  {
    "molecule": "CCc1cc2c(N3CCc4c(cc(Cn5ccnc5)cc4-c4cn(C)nc4C(F)(F)F)C3=O)cc(C)nc2c(OC)n1 + Cc1cccc(N(C)C(=O)C2C(O)CCN2c2nc(C)cc(C(F)(F)F)c2C#N)c1",
    "class.label": 1
  },
  {
    "molecule": "CC1COCCN1c1cc(C2(O)CC3CCC(C2)O3)c2cnn(-c3ccn[nH]3)c2n1 (stereo not given) + Nc1ccc(C#CCN(C(=O)Cc2ncc(C(F)(F)F)cc2C(F)(F)F)c2ccc(F)cc2)nn1",
    "class.label": 1
  },
  {
    "molecule": "O=C(c1cc(Cc2n[nH]c(=O)c3ccccc23)ccc1F)N1CCN(C(=O)C2CC2)CC1 + Cc1cccc(N(C)C(=O)C2C(O)CCN2c2nc(C)cc(C(F)(F)F)c2C#N)c1",
    "class.label": 0
  },
  {
    "molecule": "CC1COCCN1c1cc(C2(S(C)(=N)=O)CC2)nc(-c2ccnc3[nH]ccc23)n1 (stereo not given) + Cc1cccc(N(C)C(=O)C2C(O)CCN2c2nc(C)cc(C(F)(F)F)c2C#N)c1",
    "class.label": 0
  },
  {
    "molecule": "CCc1cc2c(N3CCc4c(cc(Cn5ccnc5)cc4-c4cn(C)nc4C(F)(F)F)C3=O)cc(C)nc2c(OC)n1 + COC1C(OC(N)=O)C(O)C(Oc2ccc3c(O)c(NC(=O)c4ccc(O)c(CC=C(C)C)c4)c(=O)oc3c2C)OC1(C)C",
    "class.label": 0
  },
  {
    "molecule": "C#Cc1c(F)ccc2cc(O)cc(-c3ncc4c(N5CC6CCC(C5)N6)nc(OCC56CCCN5CC(F)C6)nc4c3F)c12 (stereo not given) + Cc1cccc(N(C)C(=O)C2C(O)CCN2c2nc(C)cc(C(F)(F)F)c2C#N)c1",
    "class.label": 0
  },
  {
    "molecule": "C=CCn1c(=O)c2cnc(Nc3ccc(N4CCN(C)CC4)cc3)nc2n1-c1cccc(C(C)(C)O)n1 + Nc1ccc(C#CCN(C(=O)Cc2ncc(C(F)(F)F)cc2C(F)(F)F)c2ccc(F)cc2)nn1",
    "class.label": 1
  },
  {
    "molecule": "COc1cccc2c1C(=O)c1c(O)c3c(c(O)c1C2=O)CC(O)(C(=O)CO)CC3OC1CC(N)C(O)C(C)O1 (stereo not given) + COC1C(OC(N)=O)C(O)C(Oc2ccc3c(O)c(NC(=O)c4ccc(O)c(CC=C(C)C)c4)c(=O)oc3c2C)OC1(C)C",
    "class.label": 1
  },
  {
    "molecule": "COc1cccc2c1C(=O)c1c(O)c3c(c(O)c1C2=O)CC(O)(C(=O)CO)CC3OC1CC(N)C(O)C(C)O1 (stereo not given) + Cc1cccc(N(C)C(=O)C2C(O)CCN2c2nc(C)cc(C(F)(F)F)c2C#N)c1",
    "class.label": 1
  },
  {
    "molecule": "CC(C)n1c(=O)n(C)c2cnc3cc(F)c(-c4ccc(OCCCN5CCCCC5)nc4)cc3c21 + COC1C(OC(N)=O)C(O)C(Oc2ccc3c(O)c(NC(=O)c4ccc(O)c(CC=C(C)C)c4)c(=O)oc3c2C)OC1(C)C",
    "class.label": 0
  },
  {
    "molecule": "CCc1cc2c(N3CCc4c(cc(Cn5ccnc5)cc4-c4cn(C)nc4C(F)(F)F)C3=O)ccnc2c(OC)n1 + Cc1cccc(N(C)C(=O)C2C(O)CCN2c2nc(C)cc(C(F)(F)F)c2C#N)c1",
    "class.label": 0
  },
  {
    "molecule": "Nc1ccn(C2OC(CO)C(O)C2(F)F)c(=O)n1 (stereo not given) + Nc1ccc(C#CCN(C(=O)Cc2ncc(C(F)(F)F)cc2C(F)(F)F)c2ccc(F)cc2)nn1",
    "class.label": 1
  },
  {
    "molecule": "COc1ccc([C@@H](O)c2cc(-c3ncnc4cc(N5CCOCC5)ccc34)c(F)cc2Cl)nn1 + Cc1cccc(N(C)C(=O)C2C(O)CCN2c2nc(C)cc(C(F)(F)F)c2C#N)c1",
    "class.label": 0
  }
]

---

# Test system: 616215-338-R-J1-PDC complex spheroid viability
# experiment.notes: Anticancer human tumor 616215-338-R-J1-PDC cell line growth inhibition [POLQ];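 further: spheroids exposed to compounds for one week before readout; percent viability relative to DMSO vehicle wells taken as 100%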
# condition.info: second compound 0.1 µM; first compound 0.316 µM; stronger effect = lower value

[
  {
    "molecule": "CCc1c2c(nc3ccc(O)cc13)-c1cc3c(c(=O)n1C2)COC(=O)[C@]3(O)CC + Nc1ccc(C#CCN(C(=O)Cc2ncc(C(F)(F)F)cc2C(F)(F)F)c2ccc(F)cc2)nn1",
    "viability, T/C": "15.5%"
  },
  {
    "molecule": "O=c1[nH]cc(F)c(=O)[nH]1 + Nc1ccc(C#CCN(C(=O)Cc2ncc(C(F)(F)F)cc2C(F)(F)F)c2ccc(F)cc2)nn1",
    "viability, T/C": "53.7%"
  },
  {
    "molecule": "COc1cc(C2c3cc4c(cc3C(OC3OC5COC(C)OC5C(O)C3O)C3COC(=O)C23)OCO4)cc(OC)c1O (configuration not stated) + COC1C(OC(N)=O)C(O)C(Oc2ccc3c(O)c(NC(=O)c4ccc(O)c(CC=C(C)C)c4)c(=O)oc3c2C)OC1(C)C",
    "viability, T/C": "95.6%"
  },
  {
    "molecule": "CC(C)n1c(=O)n(C)c2cnc3cc(F)c(-c4ccc(OCCCN5CCCCC5)nc4)cc3c21 + COC1C(OC(N)=O)C(O)C(Oc2ccc3c(O)c(NC(=O)c4ccc(O)c(CC=C(C)C)c4)c(=O)oc3c2C)OC1(C)C",
    "viability, T/C": "101%"
  },
  {
    "molecule": "O=C(c1cc(Cc2n[nH]c(=O)c3ccccc23)ccc1F)N1CCN(C(=O)C2CC2)CC1 + Nc1ccc(C#CCN(C(=O)Cc2ncc(C(F)(F)F)cc2C(F)(F)F)c2ccc(F)cc2)nn1",
    "viability, T/C": "104%"
  },
  {
    "molecule": "CCc1cc2c(N3CCc4c(cc(Cn5ccnc5)cc4-c4cn(C)nc4C(F)(F)F)C3=O)cc(C)nc2c(OC)n1 + COC1C(OC(N)=O)C(O)C(Oc2ccc3c(O)c(NC(=O)c4ccc(O)c(CC=C(C)C)c4)c(=O)oc3c2C)OC1(C)C",
    "viability, T/C": "99.5%"
  },
  {
    "molecule": "CC1COCCN1c1cc(C2(S(C)(=N)=O)CC2)nc(-c2ccnc3[nH]ccc23)n1 (configuration not stated) + COC1C(OC(N)=O)C(O)C(Oc2ccc3c(O)c(NC(=O)c4ccc(O)c(CC=C(C)C)c4)c(=O)oc3c2C)OC1(C)C",
    "viability, T/C": "101%"
  },
  {
    "molecule": "C=CCn1c(=O)c2cnc(Nc3ccc(N4CCN(C)CC4)cc3)nc2n1-c1cccc(C(C)(C)O)n1 + Nc1ccc(C#CCN(C(=O)Cc2ncc(C(F)(F)F)cc2C(F)(F)F)c2ccc(F)cc2)nn1",
    "viability, T/C": "45.3%"
  },
  {
    "molecule": "CCc1cc2c(N3CCc4c(cc(Cn5ccnc5)cc4-c4cn(C)nc4C(F)(F)F)C3=O)cc(C)nc2c(OC)n1 + Nc1ccc(C#CCN(C(=O)Cc2ncc(C(F)(F)F)cc2C(F)(F)F)c2ccc(F)cc2)nn1",
    "viability, T/C": "68.7%"
  },
  {
    "molecule": "COc1cc2cc(C(=O)CCC(=O)O)sc2cc1OC + COC1C(OC(N)=O)C(O)C(Oc2ccc3c(O)c(NC(=O)c4ccc(O)c(CC=C(C)C)c4)c(=O)oc3c2C)OC1(C)C",
    "viability, T/C": "109%"
  },
  {
    "molecule": "CC1COCCN1c1cc(C2(S(C)(=N)=O)CC2)nc(-c2ccnc3[nH]ccc23)n1 (configuration not stated) + Cc1cccc(N(C)C(=O)C2C(O)CCN2c2nc(C)cc(C(F)(F)F)c2C#N)c1",
    "viability, T/C": "101%"
  },
  {
    "molecule": "C#Cc1c(F)ccc2cc(O)cc(-c3ncc4c(N5CC6CCC(C5)N6)nc(OCC56CCCN5CC(F)C6)nc4c3F)c12 (configuration not stated) + Nc1ccc(C#CCN(C(=O)Cc2ncc(C(F)(F)F)cc2C(F)(F)F)c2ccc(F)cc2)nn1",
    "viability, T/C": "90.4%"
  }
]
